# TARGET_OR_TEST_SYSTEM: JAK1 (Homo sapiens (Human))
# ASSAY_INFO: Analysis of JAK1 activity inhibition ability (ADP-Glo Kinase Assay)
# Type: biochemical
# DETAILS: JAK1 enzyme, ADP-Glo luminescence, ATP 250 uM, IRS-itide substrate, 30° C. 40 minutes; read-out: IC50
pIC50: −log10 of the molar value.
MEASUREMENT_NAME: pIC50

[
  {
    "COMPOUND": "O=C(Nc1cc(-c2ccc(CC(=O)N3CCC(C(F)(F)F)CC3)cc2)c2cc[nH]c2n1)C1CC1",
    "RESULT": "6.70 to 7.70"
  },
  {
    "COMPOUND": "N#CC1(CS(=O)(=O)N2CC=C(c3cc(NC(=O)C4CC4)nc4[nH]ccc34)CC2)CC1",
    "RESULT": "6.70 to 7.70"
  },
  {
    "COMPOUND": "CCCCS(=O)(=O)Nc1ccc(-c2cc(NC(=O)C3CC3)nc3[nH]ccc23)cc1F",
    "RESULT": "> 7.70"
  },
  {
    "COMPOUND": "N#CCC(=O)N1CC(Nc2ccc(-c3cc(NC(=O)C4CC4)nc4[nH]ccc34)cc2)C1",
    "RESULT": "6.70 to 7.70"
  },
  {
    "COMPOUND": "CCS(=O)(=O)Nc1ccc(-c2cc(NC(=O)C(C)C)nc3[nH]ccc23)cc1F",
    "RESULT": "< 6.70"
  },
  {
    "COMPOUND": "O=C(Nc1cc(C2=CC3CCC(C2)N3S(=O)(=O)CCCF)c2cc[nH]c2n1)C1CC1 (stereo not shown)",
    "RESULT": "6.70 to 7.70"
  },
  {
    "COMPOUND": "O=C(Nc1cc(-c2ccc(NS(=O)(=O)CCF)cc2)c2cc[nH]c2n1)C1CC1",
    "RESULT": "6.70 to 7.70"
  },
  {
    "COMPOUND": "O=C(Nc1cc(-c2ccc(NS(=O)(=O)CC3CC3)c(F)c2)c2cc[nH]c2n1)C1CC1",
    "RESULT": "> 7.70"
  },
  {
    "COMPOUND": "N#CCC(=O)NC1CCN(c2cc(NC(=O)C3CC3)nc3[nH]ccc23)CC1",
    "RESULT": "< 6.70"
  },
  {
    "COMPOUND": "N#CCC(=O)N1CC=C(c2nc(NC(=O)C3CC3)nc3[nH]ccc23)CC1",
    "RESULT": "6.70 to 7.70"
  },
  {
    "COMPOUND": "O=C(Nc1cc(C2=CC3CCC(C2)N3S(=O)(=O)c2ccc(F)c(F)c2)c2cc[nH]c2n1)C1CC1 (stereo not shown)",
    "RESULT": "6.70 to 7.70"
  },
  {
    "COMPOUND": "O=C(Nc1nc(-c2ccc(NS(=O)(=O)CCCF)c(F)c2)c2cc[nH]c2n1)C1CC1",
    "RESULT": "> 7.70"
  },
  {
    "COMPOUND": "O=C(Nc1cc(-c2ccc(NS(=O)(=O)C3CCC3)cc2C(F)(F)F)c2cc[nH]c2n1)C1CC1",
    "RESULT": "6.70 to 7.70"
  },
  {
    "COMPOUND": "O=C(Nc1cc(C2=CCN(C(=O)CCC(F)(F)F)C2)c2cc[nH]c2n1)C1CC1",
    "RESULT": "< 6.70"
  },
  {
    "COMPOUND": "CCCS(=O)(=O)Nc1ccc(-c2cc(NC(=O)C3CC3)nc3[nH]ccc23)c(C(F)(F)F)c1",
    "RESULT": "6.70 to 7.70"
  },
  {
    "COMPOUND": "CCc1cc(-c2cc(NC(=O)C3CC3)[n+]([O-])c3[nH]ccc23)ccc1NS(=O)(=O)CC",
    "RESULT": "6.70 to 7.70"
  }
]

---

# TARGET_OR_TEST_SYSTEM: JAK1 (Homo sapiens (Human), UniProt P23458)
# Sequence (P23458 whole entry): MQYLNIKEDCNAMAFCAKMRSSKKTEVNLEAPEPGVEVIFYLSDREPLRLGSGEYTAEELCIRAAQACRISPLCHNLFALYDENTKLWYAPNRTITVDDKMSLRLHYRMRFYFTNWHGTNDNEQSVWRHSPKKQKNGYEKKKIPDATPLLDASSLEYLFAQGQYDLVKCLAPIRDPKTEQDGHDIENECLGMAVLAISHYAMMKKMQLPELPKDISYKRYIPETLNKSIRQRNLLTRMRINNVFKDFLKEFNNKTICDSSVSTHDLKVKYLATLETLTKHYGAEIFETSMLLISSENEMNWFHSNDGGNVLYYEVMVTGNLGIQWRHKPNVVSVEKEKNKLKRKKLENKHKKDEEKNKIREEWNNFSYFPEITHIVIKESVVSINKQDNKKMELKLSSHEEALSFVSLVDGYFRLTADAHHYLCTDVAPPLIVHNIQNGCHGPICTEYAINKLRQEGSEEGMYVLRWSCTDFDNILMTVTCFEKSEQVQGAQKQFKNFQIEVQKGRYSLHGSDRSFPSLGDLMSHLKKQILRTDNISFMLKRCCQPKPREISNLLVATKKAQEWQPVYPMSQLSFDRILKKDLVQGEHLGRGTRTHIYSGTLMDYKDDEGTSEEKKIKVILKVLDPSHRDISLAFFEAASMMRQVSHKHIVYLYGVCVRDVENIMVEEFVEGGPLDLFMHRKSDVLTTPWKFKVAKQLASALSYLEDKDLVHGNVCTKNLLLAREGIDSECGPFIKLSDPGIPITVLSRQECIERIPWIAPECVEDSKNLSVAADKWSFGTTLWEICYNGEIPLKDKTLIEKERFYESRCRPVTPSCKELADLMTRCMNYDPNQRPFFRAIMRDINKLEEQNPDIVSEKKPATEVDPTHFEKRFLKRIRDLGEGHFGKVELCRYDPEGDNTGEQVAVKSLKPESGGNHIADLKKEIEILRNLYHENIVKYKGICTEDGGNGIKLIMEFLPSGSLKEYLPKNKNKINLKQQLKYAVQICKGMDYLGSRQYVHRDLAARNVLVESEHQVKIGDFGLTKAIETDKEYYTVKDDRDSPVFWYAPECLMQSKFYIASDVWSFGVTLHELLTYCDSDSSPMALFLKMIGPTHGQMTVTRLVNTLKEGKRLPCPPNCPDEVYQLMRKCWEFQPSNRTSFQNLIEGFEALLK
# ASSAY_INFO: Analysis of JAK1 activity inhibition ability (ADP-Glo Kinase Assay)
# Format: biochemical
# DETAILS: JAK1 enzyme, ADP-Glo luminescence, ATP 250 uM, IRS-itide substrate, 30° C. 40 minutes; read-out: IC50
MEASUREMENT_NAME: IC50

[
  {
    "COMPOUND": "O=C(Nc1cc(-c2ccc(OS(=O)(=O)CCCF)cc2)c2cc[nH]c2n1)C1CC1",
    "RESULT": "20 to 200 nM"
  },
  {
    "COMPOUND": "CCS(=O)(=O)Nc1ccc(-c2cc(NS(=O)(=O)C3CC3)nc3[nH]ccc23)cc1F",
    "RESULT": "> 200 nM"
  },
  {
    "COMPOUND": "O=C(Nc1cc(C2=CCN(C(=O)C(F)(F)F)CC2)c2cc[nH]c2n1)C1CC1",
    "RESULT": "20 to 200 nM"
  },
  {
    "COMPOUND": "CCCS(=O)(=O)NC1CC=C(c2cc(NC(=O)C3CC3)nc3[nH]ccc23)CC1 (stereo not shown)",
    "RESULT": "20 to 200 nM"
  },
  {
    "COMPOUND": "O=C(Nc1cc(C2=CC3CCC(C2)N3C(=O)C2CC2)c2cc[nH]c2n1)C1CC1 (stereo not shown)",
    "RESULT": "< 20 nM"
  },
  {
    "COMPOUND": "CC1CN(C(=O)CC2CCCC2)CC=C1c1cc(NC(=O)C2CC2)nc2[nH]ccc12 (stereo not shown)",
    "RESULT": "20 to 200 nM"
  },
  {
    "COMPOUND": "Cc1cc(NS(=O)(=O)CC2(C#N)CC2)ccc1-c1cc(NC(=O)C2CC2)nc2[nH]ccc12",
    "RESULT": "< 20 nM"
  },
  {
    "COMPOUND": "CC1CN(C(=O)c2cncc(Br)c2)CC=C1c1cc(NC(=O)C2CC2)nc2[nH]ccc12 (stereo not shown)",
    "RESULT": "20 to 200 nM"
  },
  {
    "COMPOUND": "CCS(=O)(=O)Nc1ccc(-c2cc(NC(=O)C3CC3)nc3[nH]ccc23)cc1C#N",
    "RESULT": "> 200 nM"
  },
  {
    "COMPOUND": "O=C(Nc1cc(C2=CC3CCCC(C2)N3C(=O)c2ccnc(F)c2)c2cc[nH]c2n1)C1CC1 (stereo not shown)",
    "RESULT": "< 20 nM"
  }
]

---

Listed next: entries and their corresponding IC50.
# TARGET_OR_TEST_SYSTEM: JAK1 (Homo sapiens (Human), UniProt P23458)
# ASSAY_INFO: Analysis of JAK1 activity inhibition ability (ADP-Glo Kinase Assay)
# Assay type: biochemical
# DETAILS: JAK1 enzyme, ADP-Glo luminescence, ATP 250 uM, IRS-itide substrate, 30° C. 40 minutes; read-out: IC50
# Method: Test Example 1: Analysis of JAK1 Activity Inhibition Ability of Compound of Formula 1 (ADP-Glo™ Kinase Assay) A JAK inhibition ability of a compound according to the present invention was identified as follows. A control material and a test material were prepared for each concentration, in such a way that they were diluted by means of DMSO. […]
MEASUREMENT_NAME: IC50

[
  {
    "COMPOUND": "N#CCCC(=O)N1CC=C(c2cc(NC(=O)C3CC3)nc3[nH]ccc23)C1 [Example 427]",
    "MEASUREMENT_NAME": "IC50",
    "RESULT": "> 200 nM"
  },
  {
    "COMPOUND": "O=C(Nc1nc(-c2ccc(NS(=O)(=O)c3ccc(F)cc3)cc2)c2cc[nH]c2n1)C1CC1 [Example 188]",
    "MEASUREMENT_NAME": "IC50",
    "RESULT": "< 20 nM"
  },
  {
    "COMPOUND": "CCS(=O)(=O)Nc1ccc(-c2nc(NC(=O)C3CC3)nc3[nH]ccc23)cc1 [Example 182]",
    "MEASUREMENT_NAME": "IC50",
    "RESULT": "20 to 200 nM"
  },
  {
    "COMPOUND": "N#CCCCS(=O)(=O)N1C2CCC1CN(c1cc(NC(=O)C3CC3)nc3[nH]ccc13)C2 [Example 664]",
    "MEASUREMENT_NAME": "IC50",
    "RESULT": "20 to 200 nM"
  },
  {
    "COMPOUND": "CC1CN(C(=O)Cc2cccc(Br)c2)CC=C1c1cc(NC(=O)C2CC2)nc2[nH]ccc12 (stereo not shown) [Example 347]",
    "MEASUREMENT_NAME": "IC50",
    "RESULT": "20 to 200 nM"
  },
  {
    "COMPOUND": "O=C(Nc1cc(C2=CCN(C(=O)C3CC3F)CC2)c2cc[nH]c2n1)C1CC1 (stereo not shown) [Example 274]",
    "MEASUREMENT_NAME": "IC50",
    "RESULT": "< 20 nM"
  },
  {
    "COMPOUND": "CCc1cc(-c2cc(NC(=O)C3CC3)nc3[nH]ccc23)cc(CC)c1NS(=O)(=O)c1ccc(F)c(F)c1 [Example 139]",
    "MEASUREMENT_NAME": "IC50",
    "RESULT": "> 200 nM"
  },
  {
    "COMPOUND": "C[C@@H]1CC(c2cc(NC(=O)C3CC3)nc3[nH]ccc23)=CCN1C(=O)CC#N [Example 389]",
    "MEASUREMENT_NAME": "IC50",
    "RESULT": "< 20 nM"
  },
  {
    "COMPOUND": "O=C(Nc1cc(-c2ccc(NS(=O)(=O)c3cccc(F)c3)cc2)c2cc[nH]c2n1)C1CC1 [Example 25]",
    "MEASUREMENT_NAME": "IC50",
    "RESULT": "< 20 nM"
  },
  {
    "COMPOUND": "O=C(Nc1cc(-c2ccc(NS(=O)(=O)c3cccc(Cl)c3)cc2)c2cc[nH]c2n1)C1CC1 [Example 26]",
    "MEASUREMENT_NAME": "IC50",
    "RESULT": "20 to 200 nM"
  },
  {
    "COMPOUND": "CN(CC(F)(F)F)S(=O)(=O)N1CC=C(c2cc(NC(=O)C3CC3)nc3[nH]ccc23)CC1 [Example 233]",
    "MEASUREMENT_NAME": "IC50",
    "RESULT": "20 to 200 nM"
  },
  {
    "COMPOUND": "O=C(Nc1cc(C2=CCC(NC3CCN(C(=O)c4ccnc(F)c4)CC3)CC2)c2cc[nH]c2n1)C1CC1 (stereo not shown) [Example 493]",
    "MEASUREMENT_NAME": "IC50",
    "RESULT": "20 to 200 nM"
  },
  {
    "COMPOUND": "O=C(Nc1cc(-c2ccc(NS(=O)(=O)c3ccc(F)cc3)cc2)c2cc[nH]c2n1)C1CC1 [Example 13]",
    "MEASUREMENT_NAME": "IC50",
    "RESULT": "< 20 nM"
  },
  {
    "COMPOUND": "N#CCC1(N2CC=C(c3cc(NC(=O)C4CC4)nc4[nH]ccc34)CC2)CN(S(=O)(=O)c2ccc(F)cc2)C1 [Example 623]",
    "MEASUREMENT_NAME": "IC50",
    "RESULT": "20 to 200 nM"
  },
  {
    "COMPOUND": "CC1(C)CC(c2cc(NC(=O)C3CC3)nc3[nH]ccc23)=CCN1C(=O)c1ccnc(Cl)c1 [Example 386]",
    "MEASUREMENT_NAME": "IC50",
    "RESULT": "20 to 200 nM"
  },
  {
    "COMPOUND": "N#CC1(CS(=O)(=O)Nc2ccc(-c3cc(NC(=O)C4CC4)nc4[nH]ccc34)c(C(=O)O)c2)CC1 [Example 143]",
    "MEASUREMENT_NAME": "IC50",
    "RESULT": "> 200 nM"
  }
]
